For each of the compounds below, state its Inhibition.
tested on: Candida albicans; details: 32 ug/mL
Description: Antifungal activity against Candida albicans ATCC 90028 (CO-ADD:FG_001); MIC in YNB media using NBS plates, by OD630
Potency and affinity values are given separately.
Answers are plain numbers, in %.

Below, 3 compounds whose answers are already recorded.
compound	assay_system	Inhibition / %
c1ccc(-c2nc3c4cnn(-c5ccccc5)c4ncn3n2)cc1	Candida albicans	-0.93
O=C(N/N=C/c1c[nH]c2ccccc12)c1ccco1	Candida albicans	1.93
COc1ccccc1C1C(C#N)=C(N)Oc2[nH]nc(C)c21 (stereo unspecified)	Candida albicans	2.02

Please go through the list and note Inhibition for each compound.
1. O=C(N/N=C/c1c[nH]c2ccccc12)c1cc2ccccc2[nH]1
2. COc1ccccc1-c1c(C#N)c(=O)oc2c1ccc1ccccc12
3. C=CCNCc1cc2cc(OCCCC3CCN(Cc4ccccc4)CC3)ccc2[nH]1.O.O=C(O)C(=O)O.O=C(O)C(=O)O
4. Cc1ccc2nc(Cl)c(/C=N/N)cc2c1
5. CN(C)c1nc(Cl)c(C#N)c(-c2ccccc2)c1C#N
6. CC1=N/C(=C(\C)c2ccccc2)C(=O)O1
7. C#CCN(C)c1nc(NCC2CCN(Cc3ccccc3)CC2)c(C#N)c(-c2ccccc2)c1C#N.Cl

0.51
9.28
0.53
15.7
3.09
0.7
-0.67

Provide Inhibition, recorded with Candida albicans, of NNC(=O)CCc1c[nH]c2ccccc12
0.67

----------
tested on: Candida albicans; conditions: 32 ug/mL
Results with a measured potency or affinity are listed apart.
For each of the compounds below, state its Inhibition.
# do not omit the unit; it follows the number

compound	experimental_result
COC(=O)C1(NC(=O)c2ccccc2)CC1c1ccccc1 (stereo unspecified)	0.07%

Please go through the list and note Inhibition for each compound.
1. C#CCN(C)c1nc(NCC2CCN(Cc3ccccc3)CC2)c(C#N)c(-c2ccccc2)c1C#N
2. O=C(N/N=C/c1c[nH]c2ccccc12)C(c1ccccc1)c1ccccc1
3. Nc1c2c(nc3ccc([N+](=O)[O-])cc13)CCCC2
4. COC1=C(C#N)CC(C)C(=O)N1 (stereo unspecified)
5. COc1nc2nc3c(c(N)c2cc1C#N)CCCC3.Cl

0.51%
1.46%
2.09%
1.01%
1.08%

----------
system: Cryptococcus neoformans; settings: Concentration 32 ug.mL-1; ASSAY_TEST Inhibition of Fungal Growth; detection method Resazurin; Absorption (OD600-OD570); plate type 384well; NBS; CORNING #3640
Description: Antifungal activity against Cryptococcus neoformans H99 ATCC 208821 (CO-ADD:FG_002); MIC in YNB media using NBS plates, by Resazurin OD(600-570)
Entries with a potency or affinity are not part of this list.
attribute_measured: Inhibition (%)
One number for each entry, in %.

compound	Inhibition (%)
O=C(O)n1ccc2ccccc21	-3.58
O=C(O)/C(=C\c1ccccc1)NC(=O)c1ccccc1	-3.88
COc1ccc2cc(C3C(C(C)=O)=C(C)Oc4nc5c(c(N)c43)CCC5)c(Cl)nc2c1 (stereo not given)	-0.43
O=C(N[C@H]1CC[C@@H](Br)[C@@H](Br)C1)C(F)(F)F	-47.65
Cc1ccc2nc(Cl)c(/C=N/N)cc2c1	-3.85
Cl.OCCCC1CCNCC1	-1.05
CC1Cc2c(Cl)nc3nc4c(c(N)c3c2NC1=O)CCCC4 (stereo not given)	-81.78
CN(Cc1cn(Cc2ccccc2)nn1)Cc1cc2cc(OCCCC3CCN(Cc4ccccc4)CC3)ccc2n1C	-73.92
COc1ccc(C2c3ccc4ccccc4c3OC(=NBr)C2(Br)C#N)cc1OC (stereo not given)	-80.16
C#CCNc1ccc(Cl)nn1	-43.23

Please go through the list and note Inhibition for each compound.
1. CC(=NNC(N)=O)c1c[nH]c2ccccc12
2. N#Cc1cc2c(N)c3c(nc2nc1Cl)CCN(Cc1ccccc1)C3
3. COc1cccc(-c2c(C#N)c(=O)oc3c2ccc2ccccc23)c1
4. CCOC(=O)c1c(C)[nH]c(=O)c(C#N)c1-c1ccccc1
5. CC(C)C(=O)N/N=C/c1c[nH]c2ccccc12

1: -5.64; 2: -88.69; 3: -2.58; 4: -38.24; 5: -5.03

----------
For each of the compounds below, state its Inhibition.
test system: Candida albicans; details: 32 ug/mL
Potency and affinity values are given separately.
One number for each entry, in %.

Below, 3 compounds whose answers are already recorded.
compound	units_symbol	experimental_result
CC/C(C)=N/NC(=O)Cc1c[nH]c2ccccc12	%	-0.57
N#C/C(=C\c1ccccc1Cl)C(=O)c1ccccc1	%	10.6
N#Cc1cc(C#N)c(Cl)nc1Cl	%	33.1

Please go through the list and note Inhibition for each compound.
1. O=C1C=C(Nc2ccccc2)C(=O)N1c1ccccc1
2. COc1cc(C2c3ccc4ccccc4c3Oc3nc4c(c(N)c32)CCCC4)ccc1O.Cl (stereo not given)
3. COc1cccc(C2C(C#N)=C(N)Oc3ccc4ccccc4c32)c1 (stereo not given)
4. CNCc1cc2cc(OCc3ccccc3)ccc2n1C.Cl
5. COc1ccc(CNNC(=O)c2cc3ccccc3[nH]2)cc1

1: -0.48; 2: -0.98; 3: 1.77; 4: -0.02; 5: 0.44

----------
test system: Cryptococcus neoformans; conditions: Concentration 32 ug.mL-1; ASSAY_TEST Inhibition of Fungal Growth; detection method Resazurin; Absorption (OD600-OD570); plate type 384well; NBS; CORNING #3640
Results with a measured potency or affinity are listed apart.
For each of the compounds below, state its Inhibition.
Give bare numbers, in %.

Below, 6 compounds whose answers are already recorded.
compound	assay_system	units_symbol	experimental_result
Nc1c2c(nc3c1C(c1ccc(O)cc1)c1c(ccc4ccccc14)O3)CCCC2 (stereo not drawn)	Cryptococcus neoformans	%	-0.6
O=Cc1ccc(OCCO[N+](=O)[O-])cc1	Cryptococcus neoformans	%	-2.32
COC1=C(C#N)CC(C)C(=O)N1 (stereo not drawn)	Cryptococcus neoformans	%	-33.52
COc1ccc(/C=C2/N=C(c3ccccc3)OC2=O)cc1OC	Cryptococcus neoformans	%	-8.84
C=C=CCN(C)Cc1cc2ccccc2n1C.O=C(O)C(=O)O	Cryptococcus neoformans	%	-29.39
COc1nc2ccc(C)cc2cc1C=O	Cryptococcus neoformans	%	-4.83

Please go through the list and note Inhibition for each compound.
1. O=C(COc1ccc2ccccc2c1)N/N=C/c1c[nH]c2ccccc12
2. CC(=O)Nc1n[nH]c2nc(N)c(C#N)c(-c3ccccc3)c12
3. N#Cc1c(N)nc(N2CCOCC2)c(C#N)c1-c1ccccc1
4. O=C(NNCc1c[nH]c2ccccc12)c1cccc2ccccc12
5. COC(=O)C(C#N)=Cc1ccccc1

[-4.09, -57.93, -3.16, -1.11, -2.58]

Please go through the list and note Inhibition for each compound.
1. CC#CCN.Cl
2. C1CNCCNCCNCCNC1

1. -2.53
2. -3.46

----------
For each of the molecules below, state its Inhibition.
tested on: Klebsiella pneumoniae; conditions: Concentration 32 ug.mL-1; ASSAY_TEST Inhibition of Bacterial Growth; detection method Absorption (OD600); MEDIA CAMHB; plate type 384well; NBS; CORNING #3640; time 18 hr
Description: Antibacterial activity against Klebsiella pneumoniae MDR ATCC 70063 (CO-ADD:GN_003); MIC in CAMBH media using NBS plates, by OD(600)
Measured potencies and affinities stand elsewhere.
Answers are plain numbers, in %.

Below, 3 molecules whose answers are already recorded.
1. Nc1c2c(nc3c1c1ccccc1n3Cc1ccccc1)CCCC2 9.09
2. C#CCN1CCc2nc3nc(N(C)C)c(C#N)cc3c(N)c2C1 15.18
3. N#Cc1cc(C#N)c(Cl)nc1Cl 2.35

Please go through the list and note Inhibition for each molecule.
1. C#CCN(C)Cc1cc2cc(OCc3ccc(OC)c4ncccc34)ccc2n1C
2. N#C[C@]1(Br)C(=N)Oc2ccc3ccccc3c2[C@@H]1c1ccc([N+](=O)[O-])cc1

[-13.41, 5.78]

Please go through the list and note Inhibition for each molecule.
1. C#CCNc1nc(NC2CCN(Cc3ccccc3)CC2)c(C#N)c(-c2ccccc2)c1C#N
2. CSC1=NC(=Cc2cn(C(c3ccccc3)(c3ccccc3)c3ccccc3)c3ccccc23)C(=O)N1C
3. COc1ccc2c(c1)cc(CN(C)Cc1cn(Cc3ccccc3)nn1)n2C

[-8.37, -25.3, 5.47]

Please go through the list and note Inhibition for each molecule.
1. CCOC(=O)c1cc2cc(OC(=O)Oc3ccc([N+](=O)[O-])cc3)ccc2[nH]1
2. C=C1CN(C)c2c(C#N)cc(C#N)c(=N)n21

[0.96, 9.83]

----------
tested on: Klebsiella pneumoniae; settings: Concentration 32 ug.mL-1; ASSAY_TEST Inhibition of Bacterial Growth; detection method Absorption (OD600); MEDIA CAMHB; plate type 384well; NBS; CORNING #3640; time 18 hr
Results with a measured potency or affinity are listed apart.
For each of the molecules below, state its Inhibition.
Answers are plain numbers, in %.

molecule	assay_system	Inhibition / %
O=Cc1cc2ccccc2nc1Cl	Klebsiella pneumoniae	-2.74
COc1nc(N)c(C#N)cc1C#N	Klebsiella pneumoniae	5.43
Cc1cnc2ccc(Br)cn12	Klebsiella pneumoniae	-1.82

Please go through the list and note Inhibition for each molecule.
1. C#CCNc1nc(NCCC2CCN(Cc3ccccc3)CC2)c(C#N)cc1C#N
2. COc1cccc(C=C2N=C(c3ccccc3)OC2=O)c1OC(C)=O
3. CSC1=NC2(CC2c2ccccc2)C(=O)N1 (stereo not given)
4. COc1cc(C2c3c(nc4c(c3N)CCC4)Oc3ccc4ccccc4c32)ccc1O (stereo not given)
5. COc1ccccc1C1c2ccc3ccccc3c2OC(=NBr)C1(Br)C#N (stereo not given)
6. C#CCNc1ccc(Cl)nn1
7. CC1=C(C(=O)N2[C@@H]3C[C@H]4CCC3(CS2(=O)=O)C4(C)C)C(c2ccccc2)C(C#N)=C(N)O1 (stereo not given in full)

1. -4.95
2. 0.25
3. 20.57
4. 23.66
5. 11.44
6. 15.08
7. 14.51
